# target-or-system: human DLK (Homo sapiens, UniProt Q12852)
# Sequence (Q12852 whole entry): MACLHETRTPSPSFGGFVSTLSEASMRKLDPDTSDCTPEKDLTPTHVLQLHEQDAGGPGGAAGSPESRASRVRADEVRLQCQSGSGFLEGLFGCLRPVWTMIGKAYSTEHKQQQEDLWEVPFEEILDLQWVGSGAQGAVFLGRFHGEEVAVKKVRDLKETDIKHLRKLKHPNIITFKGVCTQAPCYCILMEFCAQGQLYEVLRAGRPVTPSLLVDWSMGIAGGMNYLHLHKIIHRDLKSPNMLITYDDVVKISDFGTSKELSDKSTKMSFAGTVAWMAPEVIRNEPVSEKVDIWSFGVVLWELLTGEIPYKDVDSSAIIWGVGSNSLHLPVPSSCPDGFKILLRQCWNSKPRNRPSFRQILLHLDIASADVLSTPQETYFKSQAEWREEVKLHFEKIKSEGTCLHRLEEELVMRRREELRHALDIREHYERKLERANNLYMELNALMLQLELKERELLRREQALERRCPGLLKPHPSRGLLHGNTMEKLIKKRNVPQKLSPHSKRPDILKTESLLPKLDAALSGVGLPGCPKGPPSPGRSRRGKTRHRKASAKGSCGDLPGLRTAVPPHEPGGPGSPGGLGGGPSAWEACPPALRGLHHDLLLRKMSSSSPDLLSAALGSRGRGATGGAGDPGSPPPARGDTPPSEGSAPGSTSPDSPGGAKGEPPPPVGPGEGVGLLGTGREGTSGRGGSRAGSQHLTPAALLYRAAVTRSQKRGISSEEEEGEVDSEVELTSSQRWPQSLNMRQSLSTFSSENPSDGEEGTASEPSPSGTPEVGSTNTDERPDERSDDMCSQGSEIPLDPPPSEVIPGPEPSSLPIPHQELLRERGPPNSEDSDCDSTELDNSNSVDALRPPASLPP
# method-summary: DLK Kd Determinations (KINOMEscan KdELECT, DiscoveRx)
# run-parameters: fusion protein of full length human DLK (amino acids 1-859) and NFkB DNA binding domain; qPCR readout; duplicate
experimental-endpoint: Kd (nM)

1. Nc1ncc(-c2cn([C@H]3[C@@H]4CN(C5COC5)C[C@@H]43)c(C3CCCC3)n2)cc1OC(F)F :: 120
2. Nc1ncc(-c2cn([C@H]3[C@@H]4CN(CC(F)(F)F)C[C@@H]43)c(CC3CC3)n2)cc1OC(F)(F)F :: 340
3. CC(C)c1nc(-c2cnc(N)c(C(F)(F)F)c2)cn1[C@H]1[C@@H]2CC(N3CCOCC3)C[C@@H]21 (mixture of isomers) [Example 3] :: 51
4. Nc1ncc(-c2cn([C@H]3[C@@H]4CN(CCF)C[C@@H]43)c(CC3CC3)n2)cc1OC(F)F :: 53
5. Nc1ncc(-c2cn([C@H]3[C@@H]4CC(N5CCCOCC5)C[C@@H]43)c(C3CC3)n2)cc1OC(F)(F)F (some centres unmarked) [Example 149] :: 37
